Give Size PDI for every item shown.
- run description: Dynamic light scattering of Fluc mRNA/peptoid formulations (particle size, PDI)
- Format: physicochemical
- condition notes: size polydispersity index by DLS; Fluc mRNA/peptoid formulation, 5:1 mass ratio peptoid:cargo
One number for each entry.

Worked set:
{"columns": ["molecule", "attribute measured", "experimental value"],
 "data": [
  ["CCCCCCCCCCN(CC(N)=O)C(=O)CN(CCCCCCCCCC)C(=O)CN(CCCCCCCCCC)C(=O)CN(CCCCCCCCCC)C(=O)CN(CCc1ccccc1)C(=O)CN(CCc1ccccc1)C(=O)CN(CC1CCCN1)C(=O)CN(CCc1ccccc1)C(=O)CN(CCc1ccccc1)C(=O)CN(CC1CCCN1)C(=O)CN(CCc1ccccc1)C(=O)CN(CCc1ccccc1)C(=O)CN(CC1CCCN1)C(=O)CN(CCc1ccccc1)C(=O)CN(CCc1ccccc1)C(=O)CNCC1CCCN1 (centres unmarked)", "Size PDI", 0.486],
  ["CCCCCCCCCCN(CC(N)=O)C(=O)CN(CCCCCCCCCC)C(=O)CN(CCCCCCCCCC)C(=O)CN(CCCCCCCCCC)C(=O)CN(CCCCCCCCCC)C(=O)CN(CCc1ccccc1)C(=O)CN(CCc1ccccc1)C(=O)CN(CCN)C(=O)CN(CCc1ccccc1)C(=O)CN(CCc1ccccc1)C(=O)CN(CCN)C(=O)CN(CCc1ccccc1)C(=O)CN(CCc1ccccc1)C(=O)CN(CCN)C(=O)CN(CCc1ccccc1)C(=O)CN(CCc1ccccc1)C(=O)CNCCN", "Size PDI", 0.174],
  ["CCCCCCCCCCN(CC(N)=O)C(=O)CN(CCCCCCCCCC)C(=O)CN(CCCCCCCCCC)C(=O)CN(CCCCCCCCCC)C(=O)CN(CCCCCCCCCC)C(=O)CN(CCc1ccccc1)C(=O)CN(CCc1ccccc1)C(=O)CN(CCN)C(=O)CN(CCc1ccccc1)C(=O)CN(CCc1ccccc1)C(=O)CN(CCN)C(=O)CN(CCc1ccccc1)C(=O)CN(CCc1ccccc1)C(=O)CNCCN", "Size PDI", 0.158],
  ["CCCCCCCCCCN(CC(=O)N(CC(=O)N(CCCCCCCCCC)CC(=O)N(CC(N)=O)CC(CC)CCCC)CC(CC)CCCC)C(=O)CN(CCc1ccccc1)C(=O)CN(CCc1ccccc1)C(=O)CN(CCN)C(=O)CN(CCc1ccccc1)C(=O)CN(CCc1ccccc1)C(=O)CN(CCN)C(=O)CN(CCc1ccccc1)C(=O)CN(CCc1ccccc1)C(=O)CNCCN (centres unmarked)", "Size PDI", 0.135]
]}

Give one value of Size PDI per listed molecule.
1. CCCCCCCCCCN(CC(N)=O)C(=O)CN(CCCCCCCCCC)C(=O)CN(CCCCCCCCCC)C(=O)CN(CCCCCCCCCC)C(=O)CN(CCc1ccccc1)C(=O)CN(CCc1ccccc1)C(=O)CN(CCCN)C(=O)CN(CCc1ccccc1)C(=O)CN(CCc1ccccc1)C(=O)CN(CCCN)C(=O)CN(CCc1ccccc1)C(=O)CN(CCc1ccccc1)C(=O)CN(CCCN)C(=O)CN(CCc1ccccc1)C(=O)CN(CCc1ccccc1)C(=O)CNCCCN
2. CCCCCCCCCCN(CC(N)=O)C(=O)CN(CCCCCCCCCC)C(=O)CN(CCc1ccccc1)C(=O)CN(CCc1ccccc1)C(=O)CN(CCN)C(=O)CN(CCc1ccccc1)C(=O)CN(CCc1ccccc1)C(=O)CN(CCN)C(=O)CN(CCc1ccccc1)C(=O)CN(CCc1ccccc1)C(=O)CN(CCN)C(=O)CN(CCc1ccccc1)C(=O)CN(CCc1ccccc1)C(=O)CN(CCN)C(=O)CN(CCc1ccccc1)C(=O)CN(CCc1ccccc1)C(=O)CNCCN
3. CCCCCCCCCCN(CC(N)=O)C(=O)CN(CCCCCCCCCC)C(=O)CN(CCCCCCCCCC)C(=O)CN(CCCCCCCCCC)C(=O)CN(CCc1ccccc1)C(=O)CN(CCc1ccccc1)C(=O)CN(CC1CCCN1)C(=O)CN(CCc1ccccc1)C(=O)CN(CCc1ccccc1)C(=O)CN(CC1CCCN1)C(=O)CN(CCc1ccccc1)C(=O)CN(CCc1ccccc1)C(=O)CNCC1CCCN1 (centres unmarked)
4. CCCCCCCCCCN(CC(N)=O)C(=O)CN(CCCCCCCCCC)C(=O)CN(CCCCCCCCCC)C(=O)CN(CCCCCCCCCC)C(=O)CN(CCc1ccccc1)C(=O)CN(CCc1ccccc1)C(=O)CN(CCN)C(=O)CN(CCc1ccccc1)C(=O)CN(CCc1ccccc1)C(=O)CN(CCN)C(=O)CN(CCc1ccccc1)C(=O)CN(CCc1ccccc1)C(=O)CNCCN

1. 0.237
2. 0.211
3. 0.295
4. 0.077
